This collection of values is drawn from PubChem BioAssay.

Target: Left-right determination factor 2 (Homo sapiens)
Assay: LEFTY2 binders on small-molecule microarrays, primary screen, biochemical, small-molecule microarray, 635 nm fluorescence scan (AID 1110)
Conditions: LEFTY2 binding, higher = more signal
Endpoint name: composite z-score
Kindly provide the number alone.

# compound C=CCOC(=O)[C@@H]1[C@H]2C(=O)O[C@H](c3ccccc3)[C@H](c3ccccc3)N2[C@H](c2ccc(OCCOC(=O)[C@H]3C[C@H]4C(=O)N[C@@H](CCCC[N+](C)(C)C)C(=O)N4[C@H]3c3ccc(O)cc3)cc2)[C@@]12C(=O)Nc1ccc(I)cc12 ; its composite z-score = 1.05

# compound C=C(C(=O)CC[C@H](OC(=O)c1cccnc1)c1ccc(CO)o1)C(C)C ; its composite z-score = 0.584

# compound CCOC(=O)[C@H]1C/C=C/C[C@H](C(=O)OCC)C(=O)O[C@H]2[C@@H](OC)O[C@H](CO)[C@@H](OC(=O)CCc3ccccc3)[C@@H]2OC1=O ; its composite z-score = -1.59

# compound CN(C)CCCNC(=O)[C@@]1(c2ccc([N+](=O)[O-])cc2)CC(=O)N(CC23CC4CC(CC(C4)C2)C3)[C@@H]1c1ccc(CO)cc1 ; its composite z-score = 0.364

# compound Cc1ccc(F)cc1S(=O)(=O)N[C@@H]1CCN(Cc2ccc(Oc3ccccc3)cc2)C1 ; its composite z-score = 0.74

# compound CC(C)NC(=O)[C@@]1(C)c2ccccc2C(=O)N(C(C)C)[C@H]1c1ccc(CO)cc1 ; its composite z-score = -3.05

# compound CCOC(=O)[C@@H]1[C@@H]2C(=O)N(CC)C(=O)[C@@H]2C[C@@H]1Sc1ccccc1 ; its composite z-score = 0.0952
